Field: pKi. System: Serine protease 1 (Bos taurus, UniProt P00760). Provenance: assorted publications.
pKi: −log10 of the molar value.
Could you label it satisfied if measured pKi is 7 or higher, and not satisfied otherwise?

# COMPOUND, GROUP
rows = [
    ("CN1CCN(CCCN(Cc2ccc3ccc(C(=N)N)cc3c2)C(=O)c2cccc3ccccc23)CC1", "not satisfied"),
    ("CC(=O)c1c[nH]c2cc(C(=N)N)ccc12", "not satisfied"),
    ("CCc1ccc2ccc(S(=O)(=O)N[C@H]3CCN(Cc4cccc(C(=N)N)c4)C3=O)cc2c1", "not satisfied"),
    ("N=C(N)NCCC[C@@H]1NC(=O)[C@@H]2CCCN2C(=O)[C@@H](Cc2ccccc2)NC(=O)CCCCCNC(=O)[C@@H](CC(c2ccccc2)c2ccccc2)NC(=O)C1=O (single isomer, unassigned)", "satisfied"),
    ("N=C(N)NCCC[C@@H]1NC(=O)[C@@H]2CCCN2C(=O)[C@@H](Cc2ccccc2)NC(=O)CCCCCCNC(=O)C1=O (single isomer, unassigned)", "not satisfied"),
]

**Q:** Decide: pKi of C=C1CC(c2ccc(NC(=N)N)cc2)C(NC(=O)c2ccccc2)C(=O)O1 (stereo not given) >= 7?
**A:** not satisfied

**Q:** Decide: pKi of CC(=N)N1CCC(Oc2ccc3c(c2)nc(C(C)(C)C)n3Cc2ccc3ccc(C(=N)N)cc3c2)CC1 >= 7?
**A:** satisfied

**Q:** Decide: pKi of N=C(N)c1cccc(Oc2ccc(C(F)(F)F)c(Oc3cccc(C(=N)N)c3)n2)c1 >= 7?
**A:** not satisfied

**Q:** Decide: pKi of Cc1c(F)c(Oc2cccc(C(=O)N(C)C)c2)nc(Oc2cccc(C(=N)N)c2O)c1F >= 7?
**A:** not satisfied

**Q:** Decide: pKi of CCCS(=O)(=O)Nc1ccc(C)n(CC(=O)NC2CCc3nc(N)sc3C2)c1=O (stereo not given) >= 7?
**A:** not satisfied

**Q:** Decide: pKi of CCOC(=O)CN(Cc1ccccc1)C(=O)[C@H](CC(=O)NC[C@@H]1CCCN(C(=N)N)C1)NS(=O)(=O)c1ccc2ccccc2c1 >= 7?
**A:** not satisfied

**Q:** Decide: pKi of CCOC(=O)C1CCN(C(=O)C(Cc2cccc(C(=N)N)c2)NS(=O)(=O)c2ccc3ccccc3c2)CC1 (stereo not given) >= 7?
**A:** satisfied

**Q:** Decide: pKi of CN(C)C(=O)c1cccc(Oc2cc(C(=O)O)cc(Oc3cccc(C(=N)N)c3)n2)c1 >= 7?
**A:** not satisfied

**Q:** Decide: pKi of Cc1cc(OCc2cccc(C(=N)N)c2)cc(OS(=O)(=O)c2ccccc2Cl)c1 >= 7?
**A:** not satisfied

====

Field: Ki. System: Serine protease 1 (Bos taurus). Provenance: assorted publications.
TARGET ENTITY: Serine protease 1 (Bos taurus)
Sequence (P00760 whole entry): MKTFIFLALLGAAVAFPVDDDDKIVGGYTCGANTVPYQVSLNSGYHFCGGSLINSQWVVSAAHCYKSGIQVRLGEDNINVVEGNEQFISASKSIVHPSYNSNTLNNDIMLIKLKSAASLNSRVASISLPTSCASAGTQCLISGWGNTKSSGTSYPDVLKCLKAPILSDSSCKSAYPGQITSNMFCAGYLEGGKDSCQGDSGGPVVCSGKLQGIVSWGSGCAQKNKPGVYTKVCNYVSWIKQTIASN
API: value field is a number in µM; no unit string.

Check out these entries, answers already filled in.
# MOLECULE, QUANTITATIVE READOUT
records = [
    ("CCN(CC)c1cccc(Oc2nc(Oc3cccc(C(=N)N)c3)c(F)c(C)c2F)c1", 2.1),
    ("NCCCCC1NC(=O)CNC(=O)c2cc(ccc2CBr)NC1=O (stereo unspecified)", 80),
    ("N=C(N)c1ccc(Cn2ccc3cc([N+](=O)[O-])ccc32)cc1", 3.44),
]

**Q:** Look up and report measured Ki for this entry: COc1c(Cl)cc(Cl)cc1S(=O)(=O)Oc1cccc(OCCc2ccc(C(=N)N)cc2)c1
**A:** 0.263

**Q:** Look up and report measured Ki for this entry: CNC(=O)C(Cc1cccc(C(N)N)c1)NC(=O)CNS(=O)(=O)c1ccc2ccccc2c1 (stereo unspecified)
**A:** 9.2

**Q:** Look up and report measured Ki for this entry: N=C(NO)c1ccc(C[C@H](NS(=O)(=O)c2ccc3ccccc3c2)C(=O)N2CCCCCC2)cc1
**A:** 316

====

TARGET ENTITY: Serine protease 1 (Bos taurus)
Sequence (P00760 whole entry): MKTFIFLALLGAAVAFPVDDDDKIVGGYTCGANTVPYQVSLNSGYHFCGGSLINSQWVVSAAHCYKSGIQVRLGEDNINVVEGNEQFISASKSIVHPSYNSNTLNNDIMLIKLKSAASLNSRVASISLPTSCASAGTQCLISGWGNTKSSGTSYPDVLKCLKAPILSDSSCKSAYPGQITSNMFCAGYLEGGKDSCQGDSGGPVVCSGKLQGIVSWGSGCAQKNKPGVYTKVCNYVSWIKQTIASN
Field: Ki. System: Serine protease 1 (Bos taurus). Provenance: assorted publications.
API: value field is a number in µM; no unit string.

Check out these entries, answers already filled in.
# COMPOUND, TARGET ENTITY, Ki (µM)
data = [
    ("CCc1nc2cc(OC3CCN(C(C)=N)CC3)ccc2n1Cc1ccc2ccc(C(=N)N)cc2c1", "Serine protease 1 (Bos taurus)", 0.017),
    ("CC(C)OC(=O)C(Cc1cccc(C(N)N)c1)NC(=O)CNS(=O)(=O)c1ccc2ccccc2c1 (configuration not stated)", "Serine protease 1 (Bos taurus)", 3.7),
    ("CC(=O)Nc1ccc(Oc2cccc(C(=N)N)c2)nc1Oc1cccc(C(=N)N)c1", "Serine protease 1 (Bos taurus)", 1.2),
    ("CCC(C)(C)C(NC(=O)[C@@H]1CCCN1C(=O)[C@H](Cc1ccccc1)NC(=O)OCc1ccccc1)B1O[C@@H]2CC3CC(C3(C)C)[C@]2(C)O1 (some centres not stated)", "Serine protease 1 (Bos taurus)", 0.27),
    ("CC1CCCN(C(=O)C(Cc2cccc(C(=N)N)c2)NS(=O)(=O)c2ccc3ccccc3c2)C1 (configuration not stated)", "Serine protease 1 (Bos taurus)", 0.53),
    ("N=C(N)c1cccc(Oc2c[nH]c(=O)c(Oc3cccc(C(=N)N)c3)n2)c1", "Serine protease 1 (Bos taurus)", 0.76),
    ("N=C(N)c1ccc(O)c(Oc2cc(C(=O)O)cc(Oc3cccc(C4=NCCN4)c3)n2)c1", "Serine protease 1 (Bos taurus)", 1.4),
    ("N=C(N)N1CCC[C@@H](CNC(=O)[C@@H](Cc2ccccc2)NS(=O)(=O)c2ccc3ccccc3c2)C1", "Serine protease 1 (Bos taurus)", 26),
]

**Q:** Look up and report measured Ki for this entry: N=C(N)c1cccc(Cn2cc(CCc3ccc4ccccc4c3)c3ccccc32)c1
**A:** 2.9

**Q:** Look up and report measured Ki for this entry: CC1(C)C2CCC1(CCS(=O)(=O)N[C@H](Cc1cccc(C(=N)N)c1)C(=O)N1CCN(S(C)(=O)=O)CC1)C(=O)C2 (some centres not stated)
**A:** 0.22

**Q:** Look up and report measured Ki for this entry: COCCC[C@@H](NC(=O)[C@@H]1CCCN1C(=O)[C@@H](Cc1ccccc1)NC(=O)OCc1ccccc1)B1O[C@@H]2CC3CC(C3(C)C)[C@]2(C)O1 (stereo in doubt; 9a)
**A:** 0.67

**Q:** Look up and report measured Ki for this entry: CN(C(=O)[C@H](Cc1ccc(C(=N)NN)cc1)NS(=O)(=O)c1ccc2ccccc2c1)C1CCCC1
**A:** 33

====

Field: pKi. System: Serine protease 1 (Bos taurus, UniProt P00760). Provenance: assorted publications.
TARGET ENTITY: Serine protease 1 (Bos taurus, UniProt P00760)
Sequence (P00760 whole entry): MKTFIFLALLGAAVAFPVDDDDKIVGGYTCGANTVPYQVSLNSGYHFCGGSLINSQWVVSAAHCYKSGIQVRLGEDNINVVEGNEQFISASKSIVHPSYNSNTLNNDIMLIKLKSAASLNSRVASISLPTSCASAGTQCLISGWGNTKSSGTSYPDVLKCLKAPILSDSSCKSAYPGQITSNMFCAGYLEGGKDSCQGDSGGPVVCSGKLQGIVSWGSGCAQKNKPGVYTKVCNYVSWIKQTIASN
As a rule, pKi stands for the negative log10 of the concentration, concentration in M.

# MOLECULE, QUANTITATIVE READOUT
measured = [
    ("CN(C(=O)[C@H](Cc1ccc(C(=N)N)s1)NS(=O)(=O)c1ccc2ccccc2c1)C1CCCC1", 6.82),
]

**Q:** State pKi on Serine protease 1 (Bos taurus, UniProt P00760). Entry: CN(C)C(=O)c1cccc(Oc2nc3c(c(Oc4cc(C(=N)N)ccc4O)n2)NC(=O)CN3)c1
**A:** 6.49

**Q:** State pKi on Serine protease 1 (Bos taurus, UniProt P00760). Entry: N=C(N)c1cccc(CC(NS(=O)(=O)c2ccc3ccccc3c2)C(=O)N2CCN(CCO)CC2)c1 (stereo unspecified)
**A:** 5.96

**Q:** State pKi on Serine protease 1 (Bos taurus, UniProt P00760). Entry: COc1ccc2ccc(S(=O)(=O)N[C@H]3CCN(Cc4ccc(C(=N)N)cc4)C3=O)cc2c1
**A:** 5.64

**Q:** State pKi on Serine protease 1 (Bos taurus, UniProt P00760). Entry: CC(=N)N1CCC(Oc2ccc3nc(CCC(=O)O)n(Cc4ccc5ccc(C(=N)N)cc5c4)c3c2)CC1
**A:** 7.74

**Q:** State pKi on Serine protease 1 (Bos taurus, UniProt P00760). Entry: CS(=O)(=O)N[C@@H](C(=O)N1CCC[C@H]1C(=O)NCc1ccc(C(=N)N)cc1)C1CCCCC1
**A:** 8.00

**Q:** State pKi on Serine protease 1 (Bos taurus, UniProt P00760). Entry: CC(=N)N1CCC(Oc2ccc(N(C/C=C/c3cc(C(=N)N)ccc3O)C(=O)CCC(=O)O)cc2C(F)(F)F)CC1
**A:** 6.55

**Q:** State pKi on Serine protease 1 (Bos taurus, UniProt P00760). Entry: N=C(N)c1cccc(CC(NS(=O)(=O)c2ccc3ccccc3c2)C(=O)N2CCN(C=O)CC2)c1 (stereo unspecified)
**A:** 6.66

**Q:** State pKi on Serine protease 1 (Bos taurus, UniProt P00760). Entry: COCc1onc(-c2cccc(C(=N)N)c2)c1C(=O)Nc1ccc(-c2ccccc2S(N)(=O)=O)cn1
**A:** 6.70
